TEST_TARGET: COX-I (Homo sapiens, UniProt P23219)
Construct: Fresh blood was collected by syringe without anticoagulants from volunteers with consent; from tissue; host or cells: fresh human whole blood from volunteers, no anticoagulant, allowed to clot
Sequence (P23219 24-599): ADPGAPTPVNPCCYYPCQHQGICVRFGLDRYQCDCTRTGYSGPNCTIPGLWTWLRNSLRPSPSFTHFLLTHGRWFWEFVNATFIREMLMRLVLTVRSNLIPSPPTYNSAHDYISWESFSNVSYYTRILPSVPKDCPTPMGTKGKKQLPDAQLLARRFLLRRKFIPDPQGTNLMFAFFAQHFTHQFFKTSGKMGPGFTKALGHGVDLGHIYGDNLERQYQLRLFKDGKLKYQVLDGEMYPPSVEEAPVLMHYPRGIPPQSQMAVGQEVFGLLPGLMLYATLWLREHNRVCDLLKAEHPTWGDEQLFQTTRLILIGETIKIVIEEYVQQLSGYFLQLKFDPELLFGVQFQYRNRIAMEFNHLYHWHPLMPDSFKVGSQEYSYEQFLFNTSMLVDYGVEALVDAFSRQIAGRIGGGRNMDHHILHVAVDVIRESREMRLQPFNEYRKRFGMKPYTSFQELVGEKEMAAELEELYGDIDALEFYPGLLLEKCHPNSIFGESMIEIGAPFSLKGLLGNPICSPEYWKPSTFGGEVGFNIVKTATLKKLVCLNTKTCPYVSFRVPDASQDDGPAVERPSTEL
PROTOCOL_DESCRIPTION: Whole blood assay for COX-I (TXB2 production)
Type: cell-based
pIC50: −log10 of the molar value.
VALUE_TYPE: pIC50

Name the recorded pIC50 of the item COc1ccc(-c2nc(OC(=O)N(C)C)nn2-c2ccc(OC)cc2)cc1 [Example 16] in your answer.
> 8.00

----------
VALUE_TYPE: melting point

Okay, here is my list. What is melting point for each of these?
1. COc1ccc(-c2nc(OCC(F)(F)F)nn2-c2ccc(OC)nc2)cc1
2. C#CCOc1nc(-c2ccc(OC)cc2)n(-c2ccc(OC)cc2)n1
3. COc1ccc(-n2nc(OCC(F)(F)F)nc2-c2ccc(OC)nc2)cc1
4. COc1ccc(-c2nc(OC(=O)N(C)C)nn2-c2ccc(OC)cc2)cc1

63 to 64 °C
81 to 82 °C
82 to 83 °C
121 to 123 °C

----------
TEST_TARGET: COX-I (Homo sapiens)
Construct: Fresh blood was collected by syringe without anticoagulants from volunteers with consent; from tissue; host or cells: fresh human whole blood from volunteers, no anticoagulant, allowed to clot
PROTOCOL_DESCRIPTION: Whole blood assay for COX-I (TXB2 production)
Format: cell-based
ASSAY_CONTEXT: human whole blood, 1 hr at 37 C, TXB2 production; read-out: COX-I IC50
VALUE_TYPE: IC50

COc1ccc(-c2nc(OCc3cscn3)nn2-c2ccc(OC)cc2)cc1 [Example 20]    < 10 nM
COc1ccc(-c2nc(OC(C)C)nn2-c2ccc(OC)cc2)cc1 [Example 23]    < 10 nM
COc1ccc(-c2nc(C(F)(F)F)nn2-c2ccc(OC)nc2)cc1 [12(2)]    < 10 nM

Okay, here is my list. What is IC50 for each of these?
1. COc1ccc(-c2nc(OCC(=O)N(C)C)nn2-c2ccc(OC)cc2)cc1 [Example 21]
2. COc1ccc(-c2nc(S(C)(=O)=O)nn2-c2ccc(OC)cc2)cc1 [6(6)]

1. < 10 nM
2. < 10 nM

The reported numbers originate from patent US6927230B2.
